Please go through the items and note down their pIC50.
pIC50: −log10 of the molar value.

Input: Item: O=[N+]([O-])c1ccc(-c2ccc(NCCO)cc2)s1 [Compound 7c] Test system: E. coli DNA-gyrase (Escherichia coli, UniProt P0AES6) Read-out: pIC50 Value: ?
Output: < 3.40

Input: Item: COc1cccc(-c2ccc([N+](=O)[O-])s2)c1OC [Compound 6s, 2-(2,3-dimethoxyphenyl)-5-nitrothiophene] Test system: E. coli DNA-gyrase (Escherichia coli, UniProt P0AES6) Read-out: pIC50 Value: ?
Output: < 3.10

Input: Item: CC(=O)c1ccc(-c2cccc(N)c2)s1 [Compound 6h] Test system: E. coli DNA-gyrase (Escherichia coli, UniProt P0AES6) Read-out: pIC50 Value: ?
Output: < 3.10

Input: Item: CC(=O)c1ccc(-c2ccc(N)cc2)s1 [Compound 6i] Test system: E. coli DNA-gyrase (Escherichia coli, UniProt P0AES6) Read-out: pIC50 Value: ?
Output: < 3.10

Input: Item: O=[N+]([O-])c1ccc(-c2cccc(O)c2)s1 [Compound 6e, 3-(5-nitrothiophen-2-yl)phenol] Test system: E. coli DNA-gyrase (Escherichia coli, UniProt P0AES6) Read-out: pIC50 Value: ?
Output: < 3.10

Input: Item: Nc1ccc(-c2ccc([N+](=O)[O-])s2)cc1 [Compound 6c, 4-(5-nitro-2-thienyl)benzenamine] Test system: E. coli DNA-gyrase (Escherichia coli, UniProt P0AES6) Read-out: pIC50 Value: ?
Output: < 3.40

Input: Item: CC(=O)c1ccc(-c2cccc(O)c2)s1 [Compound 6k] Test system: E. coli DNA-gyrase (Escherichia coli, UniProt P0AES6) Read-out: pIC50 Value: ?
Output: < 3.40

Input: Item: O=[N+]([O-])c1ccc(-c2ccccc2O)s1 [Compound 6d, 2-(5-nitrothiophen-2-yl)phenol] Test system: E. coli DNA-gyrase (Escherichia coli, UniProt P0AES6) Read-out: pIC50 Value: ?
Output: ≤ 3.40

Numbers sourced from paper PMC5957078.
